// reported EC50 per item
experimental system: full-length HAQ STING (Homo sapiens, UniProt Q86WV6, G230A/H232R/R293Q/R71H)
Construct: made in house; host or cells: Trichoplusia ni (Hi-Five) insect cells, baculovirus generated in Sf21; crude membranes
Sequence (Q86WV6 with tags, fused parts or gaps R71H/G230A/H232R/R293Q): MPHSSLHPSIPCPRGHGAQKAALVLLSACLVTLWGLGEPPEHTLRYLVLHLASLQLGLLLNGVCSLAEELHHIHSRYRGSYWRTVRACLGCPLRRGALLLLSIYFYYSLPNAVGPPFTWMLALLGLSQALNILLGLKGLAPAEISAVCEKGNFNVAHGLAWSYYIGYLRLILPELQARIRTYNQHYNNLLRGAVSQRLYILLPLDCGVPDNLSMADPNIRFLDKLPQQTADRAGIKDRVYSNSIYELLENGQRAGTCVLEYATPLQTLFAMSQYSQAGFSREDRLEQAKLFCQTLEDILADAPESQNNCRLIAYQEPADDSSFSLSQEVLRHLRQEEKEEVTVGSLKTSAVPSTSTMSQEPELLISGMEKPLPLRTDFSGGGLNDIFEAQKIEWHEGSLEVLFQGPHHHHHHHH
method description: 3H-cGAMP filtration binding assay (HAQ STING)
recorded conditions: competition with tritiated cGAMP ligand; T. ni cell membranes overexpressing full-length HAQ STING
// note: answer is a bare numeric in nM

Look over these answered cases.
{"columns": ["compound", "EC50 / nM"],
 "data": [
  ["Nc1ncnc2c1ncn2[C@@H]1O[C@@H]2CO[P@@](=O)(S)O[C@@H]3C[C@@H](CO[P@](=O)(S)O[C@H]2[C@@H]1F)O[C@H]3n1ccc(=O)n2ccnc12 (single isomer, unassigned) [Example 20]", 15],
  ["Nc1ncnc2c1ncn2[C@@H]1O[C@@H]2CO[P@@](=O)(S)O[C@@H]3C[C@@H](CO[P@@](=O)(S)O[C@H]2[C@@H]1F)O[C@H]3n1ccc(=O)n2ccnc12 [Example 19]", 208],
  ["Nc1ncnn2c([C@H]3C[C@@H]4O[P@](=O)(S)OC[C@H]5O[C@@H](n6ccc(=O)n7ccnc67)[C@H](O[P@](=O)(S)OC[C@H]4O3)[C@@H]5O)cnc12 (single isomer, unassigned) [Example 8]", 23]
]}

Attention now turns to another entry.
Ask | Any idea what its EC50 is? The compound is Nc1nc2c(ncn2[C@@H]2O[C@@H]3COP(=O)(S)O[C@H]4[C@@H](O)[C@H](n5cnc6c(=O)[nH]c7nccn7c65)O[C@@H]4COP(=O)(S)O[C@@H]2[C@@H]3F)c(=O)[nH]1 (single isomer, unassigned) [Example 33]
Reply | 90
